test.summary: DON release in mouse plasma after oral administration of prodrugs
Type: in vivo
experimental.setup: mice, p.o., 30 minutes and 5 hours after dosing, compared to DON
observed.property: DON release / exposure in mouse plasma upon oral administration (in words)

molecule | result.value
CC(OC(=O)N[C@@H](CCC(=O)C=[N+]=[N-])C(=O)O)OC(=O)C(C)C (some centres unmarked) | little DON release
CC(OC(=O)N[C@@H](CCC(=O)C=[N+]=[N-])C(=O)O)OC(=O)C(C)(C)C (some centres unmarked) | little DON release
C[C@H](N)C(=O)N[C@@H](CCC(=O)C=[N+]=[N-])C(=O)O | little DON release
